# Log P[a] per record follows
assay: Log P by HPLC on reversed phase columns (EEC directive 79/831 Annex V.A8), acidic range; type: physicochemical

Request: // query Log P[a] value for entry CC(C)CC1CC(C)(C)c2cccc(N)c21 (racemic) [Example III-04]
Result: 4.18^[a]

* * *

Assay: Log P by HPLC on reversed phase columns (EEC directive 79/831 Annex V.A8), acidic range
Assay type: physicochemical
Description: Measurement of Log P values was performed according to EEC directive 79/831 Annex V.A8 by HPLC (High Performance Liquid Chromatography) on reversed phase columns with the following method: ^[a] Log P value is determined by measurement of LC-UV, in an acidic range, with 0.1% formic acid in water and acetonitrile as eluent (linear gradient from 10% acetonitrile to 95% acetonitrile). […]
Readout kind: Log P[a]

As a guide, the following entries are already answered.
CCC1CC(C)(C)c2cccc(NC(=O)c3cccnc3C(F)F)c21 (single isomer, unassigned) [Example 4] : 3.62^[a]
CCCC1CC(C)(C)c2cccc(NC(=O)c3cccnc3C(F)F)c21 (single isomer, unassigned) [Example 6] : 3.96^[a]

Request: Bench note: what Log P[a] did CCCC1CC(C)(C)c2cccc(NC(=O)c3cccnc3C(F)F)c21 (racemic) [Example 5] show?
Result: 3.96^[a]

Request: Which Log P[a] value belongs to CC(C)C1CC(C)(C)c2cccc(N)c21 (racemic) ?
Result: 3.37^[a]

* * *

experiment: Log P by HPLC on reversed phase columns (EEC directive 79/831 Annex V.A8), acidic range; type: physicochemical
Readout kind: Log P[a]

CC(C)C1CC(C)(C)c2cccc(NC(=O)c3cccnc3C(F)F)c21 (racemic) : 3.87^[a]

Query compound follows.
Request: GET /values?readout=Log P[a]&item= CCCC1CC(C)(C)c2cccc(NC(=O)c3cccnc3C(F)F)c21 (single isomer, unassigned) [Example 7]
Result: 3.96^[a]

* * *

Below, each of the compounds is paired with its reported Log P[a] value.
assay: Log P by HPLC on reversed phase columns (EEC directive 79/831 Annex V.A8), acidic range; format: physicochemical

Record excerpt, results attached:
CCCC1CC(C)(C)c2cccc(NC(=O)c3ccc(Cl)nc3C(F)F)c21 (racemic) [Example 8] : 4.65^[a]
CCCC1CC(C)(C)c2cccc(NC(=O)c3c(F)ccnc3C(F)F)c21 (racemic) [Example 15] : 4.21^[a]

Attention now turns to another entry.
Request: Fill in the blank: the reported Log P[a] of CC(C)CC1CC(C)(C)c2cccc(NC(=O)c3cccnc3C(F)F)c21 (single isomer, unassigned) [Example 11] is ____.
Result: 4.27^[a]

* * *

test: Log P by HPLC on reversed phase columns (EEC directive 79/831 Annex V.A8), acidic range; format: physicochemical
Examples of compounds with documented Log P[a] follow.

CCC1CC(C)(C)c2cccc(NC(=O)c3c(F)ccnc3C(F)F)c21 (racemic) [Example 14] : 3.87^[a]
CC(C)CC1CC(C)(C)c2cccc(NC(=O)c3cccnc3C(F)F)c21 (racemic) [Example 10] : 4.27^[a]
CCCC1CC(C)(C)c2cccc(N)c21 (racemic) [Example III-03] : 3.60^[a]
CC(C)CC1CC(C)(C)c2cccc(NC(=O)c3cccnc3C(F)F)c21 (single isomer, unassigned) [Example 12] : 4.27^[a]
CCC1CC(C)(C)c2cccc(NC(=O)c3cccnc3C(F)F)c21 (single isomer, unassigned) [Example 3] : 3.62^[a]

// below: Log P[a] requested for another compound
Request: Could you tell me which Log P[a] is on file for CC(C)CC1CC(C)(C)c2cccc(NC(=O)c3c(F)ccnc3C(F)F)c21 (racemic) [Example 13] ?
Result: 4.54^[a]
